# Study system: CDK7/cyclinH/MAT1 trimeric complex (Homo sapiens, UniProt P50613)
# Sequence (P50613 whole entry): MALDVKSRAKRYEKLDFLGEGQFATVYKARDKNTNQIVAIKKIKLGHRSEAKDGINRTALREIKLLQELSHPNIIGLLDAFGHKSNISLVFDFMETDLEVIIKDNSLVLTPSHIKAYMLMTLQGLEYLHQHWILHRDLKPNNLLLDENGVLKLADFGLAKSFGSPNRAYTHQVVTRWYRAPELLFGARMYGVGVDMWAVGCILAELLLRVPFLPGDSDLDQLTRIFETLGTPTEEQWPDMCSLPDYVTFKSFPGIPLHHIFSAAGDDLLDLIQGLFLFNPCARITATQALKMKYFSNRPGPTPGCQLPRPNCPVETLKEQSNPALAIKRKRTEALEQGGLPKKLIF
# Sequence (P51946 whole entry partner): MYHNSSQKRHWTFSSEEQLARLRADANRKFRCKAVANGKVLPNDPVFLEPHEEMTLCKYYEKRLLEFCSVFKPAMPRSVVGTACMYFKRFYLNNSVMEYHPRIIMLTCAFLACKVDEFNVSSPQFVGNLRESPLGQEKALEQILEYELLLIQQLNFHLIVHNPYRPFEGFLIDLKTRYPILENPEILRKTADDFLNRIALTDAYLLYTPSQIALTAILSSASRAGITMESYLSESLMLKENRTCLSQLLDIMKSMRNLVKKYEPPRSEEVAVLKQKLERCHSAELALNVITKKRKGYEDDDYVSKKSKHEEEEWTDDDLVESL
# Sequence (P51948 whole entry partner): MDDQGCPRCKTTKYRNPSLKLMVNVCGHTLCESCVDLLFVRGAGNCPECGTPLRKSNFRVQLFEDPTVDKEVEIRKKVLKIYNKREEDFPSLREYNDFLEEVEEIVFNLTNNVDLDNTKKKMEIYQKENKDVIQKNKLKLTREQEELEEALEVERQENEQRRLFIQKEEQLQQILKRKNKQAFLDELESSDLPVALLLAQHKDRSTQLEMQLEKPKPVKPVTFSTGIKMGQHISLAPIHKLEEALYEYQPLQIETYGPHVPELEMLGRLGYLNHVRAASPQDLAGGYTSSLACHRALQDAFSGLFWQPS
# Measurement notes: In vitro CDK7 assay, potency of irreversible covalent inhibitors (kinact/KI), coupled PK/LDH ADP readout at 340 nm
# Study conditions: read-out: CDK7 (20 nM enz.) (kinact/KI, M^−1*s^−1), 20 nM enzyme
Use 600 M⁻¹ s⁻¹ as the dividing line for kinact/KI, with the line itself on the 1.0 side and lower values as 0.0.

* C=CC(=O)N1CC(N2CCC(c3cc4c(c(C)n3)O[C@H](C)c3c(C5CCOCC5)ccnc3N4)CC2)C1 (single isomer, unassigned) [compound 429] | 1.0
* C=CC(=O)N1CC(N2CCC(c3ccc4c(c3)Nc3nccc(N5CCS(=O)(=O)CC5)c3CO4)CC2)C1 | 0.0
* CC#CC(=O)N1CC(N2CC[C@H](c3cc4c(c(C)n3)O[C@H](C)c3c(N5CCOCC5)ccnc3N4)N(C)CC2)C1 (single isomer, unassigned) | 1.0
* C=CC(=O)N1CC(c2nc(C)c(-c3cc(C)c4c(c3)Nc3nccc(C5CCOCC5)c3CO4)c(C)n2)C1 | 0.0
* C=CC(=O)N1CC(N2CC(c3cc4c(c(C)n3)OCc3c(-c5cnn(C)c5)ccnc3N4)C2)C1 | 0.0
* C=CC(=O)N1CC(N2CCC(c3ccc4c(c3)Nc3nccc(N5CCOCC5)c3[C@H](C)O4)CC2)C1 (single isomer, unassigned) | 1.0
* CC#CC(=O)N1CC(n2cc(-c3cc(C)c4c(c3)Nc3nccc(N5CCOCC5)c3CO4)cn2)C1 | 0.0
* CC#CC(=O)N1CC(n2cc(-c3cc4c(c(C)n3)OC(C)c3c(N5CCOCC5)ccnc3N4)cn2)C1 (stereo not shown) | 0.0
* CC#CC(=O)N1CC[C@@H](N2CC(c3cc(C)c4c(c3)Nc3nccc(N5CCOCC5)c3[C@@H](C)O4)C2)C1 (single isomer, unassigned) | 0.0
* CC#CC(=O)N1CCC(N2CCC(c3cc4c(c(C)n3)O[C@@H](C)c3c(N5CCOCC5)ccnc3N4)CC2)CC1 (single isomer, unassigned) | 0.0
* C#CCOc1cc(C(=O)Nc2ccc3c(c2)Nc2nccc(C4CCOCC4)c2CO3)ccc1NC(=O)C=C | 1.0
* C=CC(=O)N1CC(N2CC(c3cc4c(c(C#N)n3)OCc3c(C5CCOCC5)ccnc3N4)C2)C1 | 1.0
* C=CC(=O)N1CC[C@H](N2CC(c3cc4c(c(C#N)n3)O[C@@H](C)c3c(N5CCOCC5)ccnc3N4)C2)C1 (single isomer, unassigned) | 0.0
* C=CC(=O)N1CC(N2CCO[C@H](c3cc(C)c4c(c3)Nc3nccc(C5CCOCC5)c3CO4)CC2)C1 (single isomer, unassigned) | 0.0
* CC#CC(=O)N1CC(n2cc(-c3cc(C#N)c4c(c3)Nc3nccc(N5CCOCC5)c3C(C)O4)cn2)C1 (stereo not shown) | 1.0
* C=CC(=O)N1CC[C@@H](N2CC(c3cc4c(c(C5CC5)n3)OCc3c(C5CCOCC5)ccnc3N4)C2)C1 (single isomer, unassigned) | 1.0
* CC#CC(=O)N1CC[C@@H](N2CCC(c3cc4c(c(C)n3)OCc3c(N5CCOCC5)ccnc3N4)CC2)C1 (single isomer, unassigned) | 0.0
* C#Cc1cc2c(cc1C1CCN(C3CN(C(=O)C=C)C3)CC1)Nc1nccc(C3CCOCC3)c1C(C)O2 (stereo not shown) | 1.0
* C=CC(=O)N1CC[C@@H](N2CC(c3cc4c(c(C)n3)O[C@@H](C)c3c(N5CCOCC5)ccnc3N4)C2)C1 (single isomer, unassigned) | 0.0
* C=CC(=O)N1CC(N2CCC(c3cc4c(c(C)n3)O[C@@H](C)c3c(C5CCOCC5)ccnc3N4)CC2)C1 (single isomer, unassigned) [Compound 247] | 0.0
* C=CC(=O)N1CC[C@@H](N2CC(c3cc4c(c(C(F)(F)F)n3)O[C@@H](C)c3c(N5CCOCC5)ccnc3N4)C2)C1 (single isomer, unassigned) | 1.0
* C=CC(=O)N1CC(c2nc(C)c(-c3cc4c(c(C)n3)OCc3c(N5CCOCC5)ccnc3N4)c(C)n2)C1 | 0.0
* C=CC(=O)N1CC(N2CCC(c3ccc4c(c3)Nc3nccc(N5CCOCC5)c3C(C)O4)CC2)C1 (stereo not shown) | 1.0
